- Test system: normal MRC-5 fibroblasts
- Experiment: MTS assay, normal MRC-5 fibroblasts (Example 7)
- Format: cell-based
- Test settings: Homo sapiens, MRC5
Hi there, I'd appreciate the recorded IC50 for every entry that follows.
Answers are plain numbers, in nM.

Consider the compound CC1=C(CO)C(=O)O[C@@H]([C@@H](C)[C@H]2CC[C@H]3[C@@H]4C[C@H]5O[C@]56[C@@H](O)C=CC(=O)[C@]6(C)[C@H]4CC[C@]23C)C1 [Withaferin A, reference compound] and give its measured IC50.
2200

For every listed record, write down its IC50.
1. CC(=O)OCC1=C(C)C[C@H]([C@@H](C)C2CC[C@H]3[C@@H]4C[C@H]5O[C@]56[C@@H](OC(C)=O)C=CC(=O)[C@]6(COC(C)=O)[C@H]4CC[C@]23C)OC1=O (stereo partly drawn) [Compound X003, 4,19,27-triacetyl X001]
2. CC1=C(CO)C(=O)O[C@@H]([C@@H](C)C2CC[C@H]3[C@@H]4C[C@H]5O[C@]56[C@@H](O)C=CC(=O)[C@]6(CO)[C@H]4CC[C@]23C)C1 (stereo partly drawn) [Compound X001]

1500
8200
